So I've got a bunch of compounds here, and I need their log10 IC50 values.
measurement_description: Inhibition of PTPN2 in IFN-gamma induced mouse B16-F10 cells
Assay type: cell-based
details: Mus musculus, B16-F10
Recorded IC50 (log10, nM)

Can you share its log10 IC50? I mean this compound: CC1Cc2c(cc(O)c(N3CC(=O)NS3(=O)=O)c2F)CCN1C (racemic)
2.83

Okay, and O=C1CN(c2c(O)cc3c(c2F)CCNCC3)S(=O)(=O)N1 ?
2.54

Okay, and O=C1CN(c2c(O)cc3c(c2F)CCN(CC(F)F)CC3)S(=O)(=O)N1 ?
3.73

Okay, and CC1Cc2c(cc(O)c(N3CC(=O)NS3(=O)=O)c2F)CCN1 (stereo in doubt; 10a) ?
2.44

Okay, and O=C1CN(c2c(O)cc3c(c2F)CCN(CCC2CC2)CC3)S(=O)(=O)N1 ?
2.07

Okay, and CC(C)N1CCc2cc(O)c(N3CC(=O)NS3(=O)=O)c(F)c2CC1 ?
2.58

Okay, and O=C1CN(c2c(O)cc3c(c2F)CCN(CCCC2CC2)CC3)S(=O)(=O)N1 ?
2.39

Okay, and CCN1CCc2cc(O)c(N3CC(=O)NS3(=O)=O)c(F)c2CC1 ?
2.33

Okay, and CCC1Cc2c(cc(O)c(N3CC(=O)NS3(=O)=O)c2F)CCN1 (racemic) ?
2.63

Okay, and CC(C)CCN[C@@H]1CCc2cc(O)c(N3CC(=O)NS3(=O)=O)c(F)c2C1 [OSUNPROTAFIB] ?
1.64

----------
measurement_description: Half life in rat at 10 mg/kg, po
Assay type: ADME, organism-based
details: in vivo
quantity_kind: half-life
Could you write the number and then its unit?

Can you share its half-life? I mean this molecule: CCN1CCc2cc(O)c(N3CC(=O)NS3(=O)=O)c(F)c2CC1
2.37 h

----------
measurement_description: Efflux ratio of apparent permeability in human Caco-2 cells across basolateral to apical side over apical to basolateral side
quantity_kind: efflux ratio
Quick one: just the number, no unit, thanks!

Can you share its efflux ratio? I mean this compound: CC(C)CCN[C@@H]1CCc2cc(O)c(N3CC(=O)NS3(=O)=O)c(F)c2C1
0.065

----------
measurement_description: Cmax in rat at 10 mg/kg, po
Assay type: ADME, organism-based
details: in vivo
quantity_kind: Cmax (ng/mL)
The reply should be a number in ng/mL, with the unit left off.

Can you share its Cmax? I mean this compound: CC(C)CCN[C@@H]1CCc2cc(O)c(N3CC(=O)NS3(=O)=O)c(F)c2C1
38

Okay, and CCN1CCc2cc(O)c(N3CC(=O)NS3(=O)=O)c(F)c2CC1 ?
368

----------
measurement_description: Solubility of compound in FaSSIF at pH 7.4
quantity_kind: solubility

Can you share its solubility? I mean this compound: CC(C)CCN[C@@H]1CCc2cc(O)c(N3CC(=O)NS3(=O)=O)c(F)c2C1
206 µM

----------
// IC50 collected for Tyrosine-protein phosphatase non-receptor type 2 (Homo sapiens)
The reply should be a number in nM, with the unit left off.

Short answer please: IC50, Tyrosine-protein phosphatase non-receptor type 2 (Homo sapiens), entry CC(C)CCN[C@@H]1CCc2cc(O)c(N3CC(=O)NS3(=O)=O)c(F)c2C1 [OSUNPROTAFIB]
2.2

Okay, and CCN1CCc2cc(O)c(N3CC(=O)NS3(=O)=O)c(F)c2CC1 ?
9.3

Okay, and CC1Cc2c(cc(O)c(N3CC(=O)NS3(=O)=O)c2F)CCN1 (stereo in doubt; 10b) ?
17.4

Okay, and CC1Cc2c(cc(O)c(N3CC(=O)NS3(=O)=O)c2F)CCN1C (racemic) ?
17.4

Okay, and CCC1Cc2c(cc(O)c(N3CC(=O)NS3(=O)=O)c2F)CCN1 (racemic) ?
9.73

Okay, and O=C1CN(c2c(O)cc3c(c2F)CCN(CCCC2CC2)CC3)S(=O)(=O)N1 ?
4.5

Okay, and O=C1CN(c2c(O)cc3c(c2F)CCN(CC(F)F)CC3)S(=O)(=O)N1 ?
100

Okay, and CCC1Cc2c(cc(O)c(N3CC(=O)NS3(=O)=O)c2F)CCN1C (racemic) ?
75.5

Okay, and O=C1CN(c2c(O)cc3c(c2F)CCNCC3)S(=O)(=O)N1 ?
19.7

Okay, and O=C1CN(c2c(O)cc3c(c2F)CCN(CCC2CC2)CC3)S(=O)(=O)N1 ?
4.3
